Give measured binding signal for each item. Keep answers brief.
target: ZNF721 full-length (Homo sapiens, UniProt Q8TF20-2 1-923); test: HT-SELEX; 20 mM HEPES pH 7, 140 mM KCl, 5 mM NaCl, 1 mM K2HPO4, 2 mM MgSO4, 100 uM EGTA, ZnSO4, 0.1% Tween20; room temperature, 1 h; high values mean tight binding; conditions: protein: ivt; tags: eGFP (N-terminal); dsDNA, one strand shown
Sequence (Q8TF20 other isoform, or with tags, fused parts or gaps): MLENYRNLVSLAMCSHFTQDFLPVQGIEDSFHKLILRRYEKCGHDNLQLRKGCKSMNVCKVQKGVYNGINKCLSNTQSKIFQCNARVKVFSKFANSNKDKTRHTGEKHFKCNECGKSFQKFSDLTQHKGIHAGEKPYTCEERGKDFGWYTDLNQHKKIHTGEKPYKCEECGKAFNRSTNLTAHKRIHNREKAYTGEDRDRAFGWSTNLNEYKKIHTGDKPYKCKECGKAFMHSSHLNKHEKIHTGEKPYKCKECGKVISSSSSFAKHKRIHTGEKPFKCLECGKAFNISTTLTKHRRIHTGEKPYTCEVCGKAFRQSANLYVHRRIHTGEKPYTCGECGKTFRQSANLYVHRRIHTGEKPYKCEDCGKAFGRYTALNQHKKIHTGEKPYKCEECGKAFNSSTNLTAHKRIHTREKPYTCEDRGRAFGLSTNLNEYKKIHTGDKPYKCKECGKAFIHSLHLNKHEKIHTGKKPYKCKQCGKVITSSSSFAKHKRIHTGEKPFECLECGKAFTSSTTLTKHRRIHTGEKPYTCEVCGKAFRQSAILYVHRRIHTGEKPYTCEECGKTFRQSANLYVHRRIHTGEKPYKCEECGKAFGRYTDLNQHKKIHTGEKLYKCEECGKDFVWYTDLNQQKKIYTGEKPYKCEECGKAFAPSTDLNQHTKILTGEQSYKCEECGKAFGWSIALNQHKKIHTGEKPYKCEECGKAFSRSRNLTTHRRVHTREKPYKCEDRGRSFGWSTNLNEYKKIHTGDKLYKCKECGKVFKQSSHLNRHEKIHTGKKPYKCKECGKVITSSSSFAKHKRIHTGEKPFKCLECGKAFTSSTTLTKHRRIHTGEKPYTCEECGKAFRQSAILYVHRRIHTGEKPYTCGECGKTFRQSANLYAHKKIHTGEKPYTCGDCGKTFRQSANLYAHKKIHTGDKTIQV
API: value field is a number in relative 10-mer count; no unit string.

binding signal of `CCCCCCCGAC` on ZNF721 full-length (Homo sapiens, UniProt Q8TF20-2 1-923)?
0.115

binding signal of `CAACAAAACA` on ZNF721 full-length (Homo sapiens, UniProt Q8TF20-2 1-923)?
0.111

binding signal of `CCCACTCCCC` on ZNF721 full-length (Homo sapiens, UniProt Q8TF20-2 1-923)?
0.155

binding signal of `CCACACCACC` on ZNF721 full-length (Homo sapiens, UniProt Q8TF20-2 1-923)?
0.135

binding signal of `CCCGCCCCAC` on ZNF721 full-length (Homo sapiens, UniProt Q8TF20-2 1-923)?
0.207

binding signal of `GCCTCCCCCC` on ZNF721 full-length (Homo sapiens, UniProt Q8TF20-2 1-923)?
0.115

binding signal of `CCACGTCCCC` on ZNF721 full-length (Homo sapiens, UniProt Q8TF20-2 1-923)?
0.11

binding signal of `CACCCCCCGC` on ZNF721 full-length (Homo sapiens, UniProt Q8TF20-2 1-923)?
0.132

binding signal of `AAAGCGTACC` on ZNF721 full-length (Homo sapiens, UniProt Q8TF20-2 1-923)?
0.109

binding signal of `ACCACCCGCC` on ZNF721 full-length (Homo sapiens, UniProt Q8TF20-2 1-923)?
0.125

binding signal of `CCGCCGCCCC` on ZNF721 full-length (Homo sapiens, UniProt Q8TF20-2 1-923)?
0.169

binding signal of `CCAACCCCCA` on ZNF721 full-length (Homo sapiens, UniProt Q8TF20-2 1-923)?
0.13

binding signal of `CCCACACCCC` on ZNF721 full-length (Homo sapiens, UniProt Q8TF20-2 1-923)?
0.278

binding signal of `ACACTTCATA` on ZNF721 full-length (Homo sapiens, UniProt Q8TF20-2 1-923)?
0.548

binding signal of `CCCCCCGCCA` on ZNF721 full-length (Homo sapiens, UniProt Q8TF20-2 1-923)?
0.113

binding signal of `GCTTTTTTTA` on ZNF721 full-length (Homo sapiens, UniProt Q8TF20-2 1-923)?
0.176

binding signal of `CCCCCTTCCC` on ZNF721 full-length (Homo sapiens, UniProt Q8TF20-2 1-923)?
0.122

binding signal of `AAGCATACCC` on ZNF721 full-length (Homo sapiens, UniProt Q8TF20-2 1-923)?
0.253

binding signal of `GCCACCCACC` on ZNF721 full-length (Homo sapiens, UniProt Q8TF20-2 1-923)?
0.147

binding signal of `CCCGCCGCCC` on ZNF721 full-length (Homo sapiens, UniProt Q8TF20-2 1-923)?
0.194

binding signal of `CAAAAAACAG` on ZNF721 full-length (Homo sapiens, UniProt Q8TF20-2 1-923)?
0.386

binding signal of `CTCCCCCCAC` on ZNF721 full-length (Homo sapiens, UniProt Q8TF20-2 1-923)?
0.148

binding signal of `AAAACAGCCC` on ZNF721 full-length (Homo sapiens, UniProt Q8TF20-2 1-923)?
0.152

binding signal of `AGGGTGGGTG` on ZNF721 full-length (Homo sapiens, UniProt Q8TF20-2 1-923)?
0.158

binding signal of `AAAGAAACAG` on ZNF721 full-length (Homo sapiens, UniProt Q8TF20-2 1-923)?
0.126

binding signal of `AAAAACAGTA` on ZNF721 full-length (Homo sapiens, UniProt Q8TF20-2 1-923)?
0.176

binding signal of `AGGGGGTGGG` on ZNF721 full-length (Homo sapiens, UniProt Q8TF20-2 1-923)?
0.201

binding signal of `AGGTGGTGGG` on ZNF721 full-length (Homo sapiens, UniProt Q8TF20-2 1-923)?
0.113

binding signal of `CACCCGCCCA` on ZNF721 full-length (Homo sapiens, UniProt Q8TF20-2 1-923)?
0.103

binding signal of `GCACCCCCAC` on ZNF721 full-length (Homo sapiens, UniProt Q8TF20-2 1-923)?
0.107

binding signal of `AGCTTCTTTC` on ZNF721 full-length (Homo sapiens, UniProt Q8TF20-2 1-923)?
0.151

binding signal of `CCACCCTACC` on ZNF721 full-length (Homo sapiens, UniProt Q8TF20-2 1-923)?
0.115

binding signal of `ACCCCCTCCC` on ZNF721 full-length (Homo sapiens, UniProt Q8TF20-2 1-923)?
0.158

binding signal of `CACCGTCCCC` on ZNF721 full-length (Homo sapiens, UniProt Q8TF20-2 1-923)?
0.111

binding signal of `ACACTGCTTG` on ZNF721 full-length (Homo sapiens, UniProt Q8TF20-2 1-923)?
0.107

binding signal of `CCCGCACCCC` on ZNF721 full-length (Homo sapiens, UniProt Q8TF20-2 1-923)?
0.193

binding signal of `AAAAAGAAGC` on ZNF721 full-length (Homo sapiens, UniProt Q8TF20-2 1-923)?
0.126

binding signal of `AACAGAGTAC` on ZNF721 full-length (Homo sapiens, UniProt Q8TF20-2 1-923)?
0.127

binding signal of `CCCACCACGC` on ZNF721 full-length (Homo sapiens, UniProt Q8TF20-2 1-923)?
0.108

binding signal of `AAAAACAGGA` on ZNF721 full-length (Homo sapiens, UniProt Q8TF20-2 1-923)?
0.104

binding signal of `CACAAAACAG` on ZNF721 full-length (Homo sapiens, UniProt Q8TF20-2 1-923)?
0.147

binding signal of `AAGCGTACCC` on ZNF721 full-length (Homo sapiens, UniProt Q8TF20-2 1-923)?
0.208

binding signal of `AAACAAGCAG` on ZNF721 full-length (Homo sapiens, UniProt Q8TF20-2 1-923)?
0.212

binding signal of `CAAAAAAACA` on ZNF721 full-length (Homo sapiens, UniProt Q8TF20-2 1-923)?
0.365

binding signal of `ACCTCCCCCC` on ZNF721 full-length (Homo sapiens, UniProt Q8TF20-2 1-923)?
0.151

binding signal of `ACGAAAAAAG` on ZNF721 full-length (Homo sapiens, UniProt Q8TF20-2 1-923)?
0.126

binding signal of `CCCTACCCCA` on ZNF721 full-length (Homo sapiens, UniProt Q8TF20-2 1-923)?
0.11

binding signal of `CCTCCCCCCG` on ZNF721 full-length (Homo sapiens, UniProt Q8TF20-2 1-923)?
0.143

binding signal of `CCTGCCCCCC` on ZNF721 full-length (Homo sapiens, UniProt Q8TF20-2 1-923)?
0.103

binding signal of `CCATCCCCAC` on ZNF721 full-length (Homo sapiens, UniProt Q8TF20-2 1-923)?
0.116

binding signal of `AACAAAAAAA` on ZNF721 full-length (Homo sapiens, UniProt Q8TF20-2 1-923)?
0.116

binding signal of `CCTCCCCCCA` on ZNF721 full-length (Homo sapiens, UniProt Q8TF20-2 1-923)?
0.18

binding signal of `AAAACAGAGT` on ZNF721 full-length (Homo sapiens, UniProt Q8TF20-2 1-923)?
0.236

binding signal of `CTCCCCGCCC` on ZNF721 full-length (Homo sapiens, UniProt Q8TF20-2 1-923)?
0.131

binding signal of `CTTTTTTTTC` on ZNF721 full-length (Homo sapiens, UniProt Q8TF20-2 1-923)?
0.171

binding signal of `CCCACCCACC` on ZNF721 full-length (Homo sapiens, UniProt Q8TF20-2 1-923)?
0.425

binding signal of `ACCCCACCCA` on ZNF721 full-length (Homo sapiens, UniProt Q8TF20-2 1-923)?
0.173

binding signal of `CCCACCACCG` on ZNF721 full-length (Homo sapiens, UniProt Q8TF20-2 1-923)?
0.12

binding signal of `CCCCCTCCTC` on ZNF721 full-length (Homo sapiens, UniProt Q8TF20-2 1-923)?
0.116

binding signal of `AAAACAGCAG` on ZNF721 full-length (Homo sapiens, UniProt Q8TF20-2 1-923)?
0.243

binding signal of `CCCCAACCAC` on ZNF721 full-length (Homo sapiens, UniProt Q8TF20-2 1-923)?
0.156

binding signal of `CGCCCACCAC` on ZNF721 full-length (Homo sapiens, UniProt Q8TF20-2 1-923)?
0.138

binding signal of `AAAAAGAGCA` on ZNF721 full-length (Homo sapiens, UniProt Q8TF20-2 1-923)?
0.108

binding signal of `AGGGGTGGTG` on ZNF721 full-length (Homo sapiens, UniProt Q8TF20-2 1-923)?
0.139

binding signal of `GCCCCCCGCC` on ZNF721 full-length (Homo sapiens, UniProt Q8TF20-2 1-923)?
0.123

binding signal of `CGTCCCCCCC` on ZNF721 full-length (Homo sapiens, UniProt Q8TF20-2 1-923)?
0.126

binding signal of `ACACCCCACC` on ZNF721 full-length (Homo sapiens, UniProt Q8TF20-2 1-923)?
0.13

binding signal of `CCCTCCCCCG` on ZNF721 full-length (Homo sapiens, UniProt Q8TF20-2 1-923)?
0.145

binding signal of `CCCTCCACCC` on ZNF721 full-length (Homo sapiens, UniProt Q8TF20-2 1-923)?
0.321

binding signal of `CCACCACCCC` on ZNF721 full-length (Homo sapiens, UniProt Q8TF20-2 1-923)?
0.455

binding signal of `CACCCACCCA` on ZNF721 full-length (Homo sapiens, UniProt Q8TF20-2 1-923)?
0.192

binding signal of `CCATCCACCC` on ZNF721 full-length (Homo sapiens, UniProt Q8TF20-2 1-923)?
0.109

binding signal of `AAAAAAGCAC` on ZNF721 full-length (Homo sapiens, UniProt Q8TF20-2 1-923)?
0.158

binding signal of `CACGCCCCCC` on ZNF721 full-length (Homo sapiens, UniProt Q8TF20-2 1-923)?
0.123

binding signal of `GCCCTCCCCC` on ZNF721 full-length (Homo sapiens, UniProt Q8TF20-2 1-923)?
0.163

binding signal of `AAGCAGCATG` on ZNF721 full-length (Homo sapiens, UniProt Q8TF20-2 1-923)?
0.115

binding signal of `AGCATCTCCA` on ZNF721 full-length (Homo sapiens, UniProt Q8TF20-2 1-923)?
0.132

binding signal of `CAGCCCACCC` on ZNF721 full-length (Homo sapiens, UniProt Q8TF20-2 1-923)?
0.151

binding signal of `CCCCCTCGCC` on ZNF721 full-length (Homo sapiens, UniProt Q8TF20-2 1-923)?
0.123

binding signal of `CCCGCCCCGC` on ZNF721 full-length (Homo sapiens, UniProt Q8TF20-2 1-923)?
0.154

Source of measurements: paper PMC13541613
